Please go through the items and note down their HEK-Blue activity, No BP, DF-100,000.
assayed-system: T1, IL-18 receptors on HEK-Blue IL-18 reporter cells (UniProt Q13478 19-541; O95256 20-599, limits assumed); further: unit not given here
T1 sequence (looked up) 1: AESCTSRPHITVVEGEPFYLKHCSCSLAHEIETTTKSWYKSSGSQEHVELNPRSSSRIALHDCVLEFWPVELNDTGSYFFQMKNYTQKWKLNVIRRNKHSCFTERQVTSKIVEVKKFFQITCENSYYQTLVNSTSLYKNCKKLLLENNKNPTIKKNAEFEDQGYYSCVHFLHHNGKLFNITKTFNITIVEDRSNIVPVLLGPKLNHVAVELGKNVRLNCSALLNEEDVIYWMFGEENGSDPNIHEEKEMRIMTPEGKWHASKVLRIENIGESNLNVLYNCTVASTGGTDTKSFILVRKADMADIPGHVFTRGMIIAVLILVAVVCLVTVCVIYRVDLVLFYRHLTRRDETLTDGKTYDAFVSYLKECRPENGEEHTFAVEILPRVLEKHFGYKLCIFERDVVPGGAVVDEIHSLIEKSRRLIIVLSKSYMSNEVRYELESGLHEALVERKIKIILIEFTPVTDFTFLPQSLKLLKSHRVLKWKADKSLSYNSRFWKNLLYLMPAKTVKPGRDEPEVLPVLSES
T1 sequence (looked up) 2: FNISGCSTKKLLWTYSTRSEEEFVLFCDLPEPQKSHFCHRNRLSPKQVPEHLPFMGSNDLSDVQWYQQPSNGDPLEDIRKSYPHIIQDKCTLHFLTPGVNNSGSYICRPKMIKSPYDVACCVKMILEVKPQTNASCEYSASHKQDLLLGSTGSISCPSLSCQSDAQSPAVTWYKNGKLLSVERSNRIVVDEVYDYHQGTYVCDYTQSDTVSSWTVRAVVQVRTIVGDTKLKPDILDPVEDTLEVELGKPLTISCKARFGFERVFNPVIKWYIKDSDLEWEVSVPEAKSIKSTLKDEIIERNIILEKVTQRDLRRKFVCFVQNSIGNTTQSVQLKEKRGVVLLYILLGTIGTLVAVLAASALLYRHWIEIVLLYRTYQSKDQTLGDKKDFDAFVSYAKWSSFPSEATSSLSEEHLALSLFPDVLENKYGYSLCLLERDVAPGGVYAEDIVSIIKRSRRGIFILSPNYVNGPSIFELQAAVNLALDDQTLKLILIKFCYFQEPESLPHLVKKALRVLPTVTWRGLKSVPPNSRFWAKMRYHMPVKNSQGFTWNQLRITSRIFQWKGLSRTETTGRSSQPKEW
test-method-notes: cell-based or functional assay
Lab note: jot down the number only; don't add units.

**Query** Recorded HEK-Blue activity, No BP, DF-100,000 for yeast display IL-18 variant K53H, S55V (ligand) YFGKLESKLSVIRNLNDQVLFIDQGNRPLFEDMTDSDMRDNAPRTIFIISMYHDVQPRGMAVTISVKSEKISTLSSENKIISFKEMNPPDNIKDTKSDIIFFQRSVPGHDNKMQFESSSYEGYFLASEKERDLFKLILKKEDELGDRSIMFTVQNED , please?
**Result** 0.94

**Query** Continue with yeast display IL-18 variant T34I, S36T, D40A, N41M, K53T, S55Y (ligand) YFGKLESKLSVIRNLNDQVLFIDQGNRPLFEDMIDTDMRAMAPRTIFIISMYTDYQPRGMAVTISVKSEKISTLSSENKIISFKEMNPPDNIKDTKSDIIFFQRSVPGHDNKMQFESSSYEGYFLASEKERDLFKLILKKEDELGDRSIMFTVQNED
**Result** 0.18

**Query** Continue with yeast display IL-18 variant K53Y, S55G (ligand) YFGKLESKLSVIRNLNDQVLFIDQGNRPLFEDMTDSDMRDNAPRTIFIISMYYDGQPRGMAVTISVKSEKISTLSSENKIISFKEMNPPDNIKDTKSDIIFFQRSVPGHDNKMQFESSSYEGYFLASEKERDLFKLILKKEDELGDRSIMFTVQNED
**Result** 0.14

**Query** Continue with yeast display IL-18 variant E6D, S36F, K53T, S55M, R58K (ligand) YFGKLDSKLSVIRNLNDQVLFIDQGNRPLFEDMTDFDMRDNAPRTIFIISMYTDMQPKGMAVTISVKSEKISTLSSENKIISFKEMNPPDNIKDTKSDIIFFQRSVPGHDNKMQFESSSYEGYFLASEKERDLFKLILKKEDELGDRSIMFTVQNED
**Result** 0.14

**Query** Continue with yeast display IL-18 variant K53T, S55A (ligand) YFGKLESKLSVIRNLNDQVLFIDQGNRPLFEDMTDSDMRDNAPRTIFIISMYTDAQPRGMAVTISVKSEKISTLSSENKIISFKEMNPPDNIKDTKSDIIFFQRSVPGHDNKMQFESSSYEGYFLASEKERDLFKLILKKEDELGDRSIMFTVQNED
**Result** 0.96

**Query** Continue with yeast display IL-18 variant K53N, S55M, R104S, P107A (ligand) YFGKLESKLSVIRNLNDQVLFIDQGNRPLFEDMTDSDMRDNAPRTIFIISMYNDMQPRGMAVTISVKSEKISTLSSENKIISFKEMNPPDNIKDTKSDIIFFQSSVAGHDNKMQFESSSYEGYFLASEKERDLFKLILKKEDELGDRSIMFTVQNED
**Result** 0.24

**Query** Continue with yeast display IL-18 variant S36E, D37E, D40K, N41T, K53T, S55Q, R104H (ligand) YFGKLESKLSVIRNLNDQVLFIDQGNRPLFEDMTDEEMRKTAPRTIFIISMYTDQQPRGMAVTISVKSEKISTLSSENKIISFKEMNPPDNIKDTKSDIIFFQHSVPGHDNKMQFESSSYEGYFLASEKERDLFKLILKKEDELGDRSIMFTVQNED
**Result** 0.22
